ASSAY SYSTEM: Farnesyl-protein transferase (FTase) (UniProt P49354+P49356)
ASSAY NAME: In vitro inhibition of Ras farnesyl transferase
SETTINGS: Ras-CVLS at 3.5 μM, 0.25 μM [3H]FPP; partially purified bovine or recombinant human enzyme; concentration giving 50% inhibition of FTase; read-out: Inhibition of RAS farnesylation, IC50
Method: Farnesyl-protein transferase (FTase) from bovine brain was chromatographed on DEAE-Sephacel (Pharmacia, 0-0.8 M NaCl gradient elution), N-octyl agarose (Sigma, 0-0.6 M NaCl gradient elution), and a mono Q HPLC column (Pharmacia, 0-0.3 M NaCl gradient). Ras-CVLS at 3.5 μM, 0.25 μM [^3H]FPP, and the indicated compounds were incubated with either a partially purified bovine enzyme preparation or a recombinant human enzyme preparation. The recombinant human enzyme was prepared as described in Omer, C. […]
READOUT TYPE: IC50 (nM)

CCC(C)[C@@H](CN1Cc2ccccc2C[C@H]1C(=O)N[C@@H](CCSC)C(=O)OC)NC[C@@H](N)CS (stereo partly shown) [Compound 1] : 680

[a] CCC(C)C(NCC(N)CS)C(=O)N1CCCC1C(=O)NC1CCOC1=O (stereo not shown) [Compound 19]
[b] CCC(C)C(NCC(N)CS)C(=O)N1CCCCC1C(=O)NC(CCO)C(=O)O (stereo not shown) [Compound 22]
Looking only at measured IC50, which entry is lower, a or b ? Choose, then provide that item's label.
b
(b: 340 nM, a: 10000 nM)

[P] CCC(C)C(CN1CCCC1C(=O)NC(CCSC)C(=O)OC)N(C)CC(N)CS (stereo not shown) [Compound 23]
[Q] CCC(C)[C@@H](CN1Cc2ccccc2C[C@H]1C(=O)N[C@@H](CCO)C(=O)O)NC[C@@H](N)CS (stereo partly shown) [Compound 14]
[R] CC[C@H](C)[C@@H](CN1CCC[C@H]1C(=O)N[C@@H](CCSC)C(=O)OC)NC[C@@H](N)CS [Compound 3]
hey, can you rank those compounds up there by IC50? biggest number first please State the ranking by listing the labels in the requested order.
P, R, Q

====

ASSAY SYSTEM: Farnesyl-protein transferase (FTase) (UniProt P49354+P49356)
ASSAY NAME: In vitro inhibition of Ras farnesyl transferase
Assay type: biochemical
SETTINGS: Ras-CVLS at 3.5 μM, 0.25 μM [3H]FPP; partially purified bovine or recombinant human enzyme; concentration giving 50% inhibition of FTase; read-out: Inhibition of RAS farnesylation, IC50
pIC50: −log10 of the molar value.
READOUT TYPE: pIC50

In the examples that follow, each entry is paired with its recorded pIC50.
CCC(C)C(CN1CCCC1C(=O)NC1CCOC1=O)NCC(N)CS (stereo not shown) : 5.85
CC[C@@H]1CCN(C[C@@H](NC[C@@H](N)CS)[C@@H](C)CC)[C@@H]1C(=O)N[C@@H](CCSC)C(=O)OC : 5.64
CCC(C)C(CN1CCCC1C(=O)NC(CCS(C)(=O)=O)C(=O)O)N(C)CC(N)CS (stereo not shown) : 7.25
CC[C@H](C)[C@@H](CN1CCC[C@H]1C(=O)N[C@@H](CCSC)C(=O)O)NC[C@@H](N)CS : 7.77
CC[C@@H]1CCN(C[C@@H](NC[C@@H](N)CS)[C@@H](C)CC)[C@@H]1C(=O)N[C@@H](CCSC)C(=O)O : 8.38
CCC(C)C(CN1CCCC1C(=O)NC(CCS(C)(=O)=O)C(=O)O)NCC(N)CS (stereo not shown) : 7.46
CC[C@H](C)[C@@H](CN1CCC[C@H]1C(=O)N[C@@H](CCO)C(=O)O)NC[C@@H](N)CS : 7.35
CCC(C)C(NCC(N)CS)C(=O)N1CCCCC1C(=O)NC1CCOC1=O (stereo not shown) : 4.60

[I] CCC(C)C(CN1CCCC1C(=O)NC(CCSC)C(=O)O)N(C)CC(N)CS (stereo not shown)
[II] CCC(C)[C@@H](CN1Cc2ccccc2C[C@H]1C(=O)N[C@@H](CCSC)C(=O)O)NC[C@@H](N)CS (stereo partly shown)
Looking only at measured pIC50, which entry is lower, I or II ? Choose, then provide that item's label.
I
(I: 8.22, II: 9.41)

Every entry's value here was drawn from patent US6500841B1.
